Test system: Aacec B (cecropin B) peptide (Aedes aegypti)
Sequence: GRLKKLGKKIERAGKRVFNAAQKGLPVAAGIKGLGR
Experiment: pull-down

[
  {
    "residue-string": "GTTAGCTGGCGATTTGCAGAGCAGGTTCACGAGTGGCGCGGAGGTCGAAATTCCGGTTCGAAATGTTGGAATCCCGGATCTTGCCTTTGCGGAG (double strand) [5' end-1-2 fragment]",
    "target-of-assay": "Aacec B (cecropin B) peptide (Aedes aegypti)",
    "binding": "binds"
  },
  {
    "residue-string": "ATGGCATACTTCCGTGAGGACATCGGAGTCAACATGCACCATTGGCACTGGCATTTAGT (double strand) [Cu A1 fragment]",
    "target-of-assay": "Aacec B (cecropin B) peptide (Aedes aegypti)",
    "binding": "binds"
  },
  {
    "residue-string": "GCCTACATTCACGATCCTGAGTATCGGTACTTGGAAGATTTTGGAGTAATGGG (double strand) [Cu B2 fragment]",
    "target-of-assay": "Aacec B (cecropin B) peptide (Aedes aegypti)",
    "binding": "binds"
  }
]

Provenance of the data: paper PMC5703890
